Tested on: CMS
Assay: Secondary dose-response HTS, Cell Titer Glo
Type: cell-based, human
Details: Homo sapiens, HTS; secondary high-throughput screen; CMS; read-out: average effective concentration, CMS
Below is a list of entries, each paired with its recorded EC50 value.
result_type: EC50 (nM)

[[record]]
compound = "COCCn1c2c([n+](Cc3cnccn3)c1C)C(=O)c1ccccc1C2=O"
result_type = "EC50"
value_unit = "nM"
value_operator = "="
reported_value = 91

[[record]]
compound = "COc1cc([C@@H]2c3cc4c(cc3[C@@H](O[C@@H]3O[C@@H]5CO[C@@H](C)O[C@H]5[C@H](O)[C@H]3O)[C@H]3COC(=O)[C@H]23)OCO4)cc(OC)c1O [ETOPOSIDE]"
result_type = "EC50"
value_unit = "nM"
value_operator = ">"
reported_value = 10000

[[record]]
compound = "C=CC(=O)N1CCC[C@@H](n2nc(-c3ccc(Oc4ccccc4)cc3)c3c(N)ncnc32)C1 [Ibrutinib, reference compound]"
result_type = "EC50"
value_unit = "nM"
value_operator = ">"
reported_value = 10000

[[record]]
compound = "C[C@@H]1CN(CC(=O)Nc2ccc3c(c2)Cc2cccc(-c4cc(=O)cc(N5CCOCC5)o4)c2S3)C[C@H](C)O1"
result_type = "EC50"
value_unit = "nM"
value_operator = ">"
reported_value = 10000

[[record]]
compound = "O=C1NC(=O)[C@@H](c2cn3c4c(cccc24)CCC3)[C@@H]1c1c[nH]c2ccccc12 [TIVANTINIB]"
result_type = "EC50"
value_unit = "nM"
value_operator = "="
reported_value = 1500

[[record]]
compound = "COc1cc2c(NC3CCN(C(C)C)CC3)nc(C3CCCCC3)nc2cc1OCCCN1CCCC1 [UNC0638 HYDRATE]"
result_type = "EC50"
value_unit = "nM"
value_operator = "="
reported_value = 6000

[[record]]
compound = "O=C(O)CCCc1ccc(N(CCCl)CCCl)cc1"
result_type = "EC50"
value_unit = "nM"
value_operator = "="
reported_value = 7000

[[record]]
compound = "CN(C)Cc1c(C(=O)NCCOc2ccc(C(=O)NO)cc2)oc2ccccc12"
result_type = "EC50"
value_unit = "nM"
value_operator = "="
reported_value = 34

[[record]]
compound = "CC(=O)Nc1ccc(C(=O)Nc2ccccc2N)cc1"
result_type = "EC50"
value_unit = "nM"
value_operator = "="
reported_value = 9000

[[record]]
compound = "COc1c(C)cnc(Cn2cnc3c(Cl)nc(N)nc32)c1C"
result_type = "EC50"
value_unit = "nM"
value_operator = "="
reported_value = 110

[[record]]
compound = "Nc1ccn([C@@H]2O[C@H](CO)[C@@H](O)[C@@H]2O)c(=O)n1"
result_type = "EC50"
value_unit = "nM"
value_operator = "="
reported_value = 290

[[record]]
compound = "NC(=O)Nc1cc(-c2cccc(F)c2)sc1C(=O)N[C@H]1CCCNC1"
result_type = "EC50"
value_unit = "nM"
value_operator = "="
reported_value = 680

[[record]]
compound = "O=c1[nH]c(=O)n([C@H]2C[C@H](O)[C@@H](CO)O2)cc1F"
result_type = "EC50"
value_unit = "nM"
value_operator = "="
reported_value = 7900

[[record]]
compound = "CC1CS(=O)(=O)CCN1/N=C/c1ccc([N+](=O)[O-])o1 (stereo not shown)"
result_type = "EC50"
value_unit = "nM"
value_operator = "="
reported_value = 5000

[[record]]
compound = "Nc1nc(Cl)nc2c1ncn2[C@@H]1O[C@H](CO)[C@@H](O)[C@@H]1F [Clofarabine, clofarabine, reference compound]"
result_type = "EC50"
value_unit = "nM"
value_operator = "="
reported_value = 18

[[record]]
compound = "C[C@]12O[C@H](C[C@]1(O)CO)n1c3ccccc3c3c4c(c5c6ccccc6n2c5c31)CNC4=O"
result_type = "EC50"
value_unit = "nM"
value_operator = "="
reported_value = 7.55


====

pEC50 for assorted compounds
Tested on: MOLM-13
Experiment: cells
Set-up: species or system AML cell lines (8); Secondary HTS, 10-point dose-response in triplicate, Cell Titer Glo viability, four-parameter fit EC50
Conditions: Homo sapiens, MOLM-13, 72 h, read-out: MOLM-13
pEC50: −log10 of the molar value.
result_type: pEC50

[[record]]
compound = "CN(C)CC(=O)Nc1ccc2[nH]c(=O)c3ccccc3c2c1 [SJ000784265, PJ34]"
reported_value = "< 5.00"

[[record]]
compound = "COC(=O)[C@H](CC(C)C)NC(=O)c1ccc(NCc2cnc[nH]2)cc1-c1cccc2ccccc12 [SJ000803715, GGTI-2147]"
reported_value = 5.96

[[record]]
compound = "Nc1nc(OCc2ccccc2)c2nc[nH]c2n1 [Compound O6-BENZYLGUANINE]"
reported_value = "< 5.00"

[[record]]
compound = "COc1cc(C(=O)NC2CCN(C)CC2)c(F)cc1Nc1ncc2c(n1)N(C1CCCC1)CC(F)(F)C(=O)N2C [TAK-960]"
reported_value = "< 5.00"


====

Tested on: ML-2
Design: species or system AML cell lines (8); Primary HTS, single concentration about 10 uM, Cell Titer Glo viability; log10 luminescence, per cent inhibition relative to cycloheximide control
Details: 72 h, relative to cycloheximide control, log10 luminescence; inhibitor
The reader will find reported ML-2 %inh values listed item by item below.
result_type: ML-2 %inh (%)

[[record]]
compound = "Oc1c(Cl)cc(Cl)c(Cl)c1Cc1c(O)c(Cl)cc(Cl)c1Cl"
result_type = "ML-2 %inh"
reported_value = 15.89

[[record]]
compound = "CC(=O)OC/C=C(C)/C=C/C=C(C)/C=C/C1=C(C)CCCC1(C)C [SJ000285933-3, RETINYL ACETATE]"
result_type = "ML-2 %inh"
reported_value = 2.843

[[record]]
compound = "Cc1nnc(-c2cccc(-c3ccc(C(=O)NCC4CC4)cc3)c2)o1"
result_type = "ML-2 %inh"
reported_value = 2.007

[[record]]
compound = "Cc1c[nH]c(/C=C2\\C(=O)Nc3ccccc32)c1CCC(=O)O"
result_type = "ML-2 %inh"
reported_value = -0.6671


====

This listing pairs molecules with measured EC50.
Test system: M07e
Assay: cells
Parameters: species or system AML cell lines (8); Secondary HTS, 10-point dose-response in triplicate, Cell Titer Glo viability, four-parameter fit EC50
Details: M-07e, 72 h, read-out: M07e
result_type: EC50

[[record]]
molecule = "COCCCn1c(N)c(C(=O)NC2CCCC2)c2nc3ccccc3nc21"
reported_value = "> 10 µM"

[[record]]
molecule = "Cc1nc2ccc(CN(C)c3ccc(C(=O)N[C@@H](CCC(=O)O)C(=O)O)s3)cc2c(=O)[nH]1"
reported_value = "> 10 µM"

[[record]]
molecule = "C=CC(=O)Nc1cccc(Nc2nc(Nc3ccc(OCCOC)cc3)ncc2F)c1"
reported_value = "9.5 µM"

[[record]]
molecule = "OC(c1cc(C(F)(F)F)nc2c(C(F)(F)F)cccc12)C1CCCCN1 (centres unmarked)"
reported_value = "> 10 µM"

[[record]]
molecule = "Nc1nc(OCc2cc(Br)cs2)c2[nH]cnc2n1"
reported_value = "> 10 µM"

[[record]]
molecule = "CCCS(=O)(=O)Nc1ccc(F)c(C(=O)c2c[nH]c3ncc(-c4ccc(Cl)cc4)cc23)c1F"
reported_value = "> 10 µM"

[[record]]
molecule = "CC(=O)Nc1ccc(NC(=S)NC(=O)c2ccc(C(C)(C)C)cc2)cc1"
reported_value = "> 10 µM"

[[record]]
molecule = "c1ccc2c(-c3cnn4cc(-c5ccc(N6CCNCC6)cc5)cnc34)ccnc2c1"
reported_value = "0.62 µM"


====

System: MV4-11
Set-up: species or system AML cell lines (8); Primary HTS, single concentration about 10 uM, Cell Titer Glo viability; log10 luminescence, per cent inhibition relative to cycloheximide control
Conditions: 72 h, relative to cycloheximide control, log10 luminescence; inhibitor
Each entry below carries its recorded MV4-11 %inh.
result_type: MV4-11 %inh (%)

[[record]]
compound = "Cn1c(=O)c(Oc2ccc(F)cc2F)cc2cnc(NC(CO)CO)nc21 [SJ000581024-1]"
target_or_test_system = "MV4-11"
value_unit = "%"
reported_value = 1.357

[[record]]
compound = "CCCN(CCc1ccc(O)cc1)C(=O)[C@@H](C)c1cccc(C(=O)c2ccccc2)c1 [SJ000520373-2, NMDA298-1]"
target_or_test_system = "MV4-11"
value_unit = "%"
reported_value = 11.33

[[record]]
compound = "COc1ccc(O)c(C(=O)c2ccc(C(=O)O[C@@H]3CCCNC[C@H]3NC(=O)c3ccncc3)cc2)c1F [SJ000580951-1]"
target_or_test_system = "MV4-11"
value_unit = "%"
reported_value = 68.34

[[record]]
compound = "NC(=O)c1ccc(Oc2nccc(-c3c(-c4ccc(F)cc4)ncn3C3CCNCC3)n2)cc1 [SJ000573120-1, JB27193-061B1]"
target_or_test_system = "MV4-11"
value_unit = "%"
reported_value = 1.936

[[record]]
compound = "COc1ccc2nc3cc(Cl)ccc3c(Nc3cc(CN4CCCC4)c(O)c(CN4CCCC4)c3)c2n1 [SJ000518979-1, PYRONARIDINE PHOSPHATE]"
target_or_test_system = "MV4-11"
value_unit = "%"
reported_value = 74.19

[[record]]
compound = "COC(=O)Nc1nc2cc(Oc3ccc(NC(=O)Nc4ccccc4)cc3)ccc2[nH]1 [SJ000573165-1, T261/64/2]"
target_or_test_system = "MV4-11"
value_unit = "%"
reported_value = 69.12

[[record]]
compound = "COc1c(N2CCNC(C)C2)c(F)cc2c(=O)c(C(=O)O)cn(C3CC3)c12 (stereo not shown) [SJ000286066-3, GATIFLOXACIN]"
target_or_test_system = "MV4-11"
value_unit = "%"
reported_value = -0.7209

